- tested-on: T1, mouse MAdCAM expressed on cells (mouse, UniProt Q61826 22-405)
- T1 construct: whole, on cells
- T1 sequence (looked up): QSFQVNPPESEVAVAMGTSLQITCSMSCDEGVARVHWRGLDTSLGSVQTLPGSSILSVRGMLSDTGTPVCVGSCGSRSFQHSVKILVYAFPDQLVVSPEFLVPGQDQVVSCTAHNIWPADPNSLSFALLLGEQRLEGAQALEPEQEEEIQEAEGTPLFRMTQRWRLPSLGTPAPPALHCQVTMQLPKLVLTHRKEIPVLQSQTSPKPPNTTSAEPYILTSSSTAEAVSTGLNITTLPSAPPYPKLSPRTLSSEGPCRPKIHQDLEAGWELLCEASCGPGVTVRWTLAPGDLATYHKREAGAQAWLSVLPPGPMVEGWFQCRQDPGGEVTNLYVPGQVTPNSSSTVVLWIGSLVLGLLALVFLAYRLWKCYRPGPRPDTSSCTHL
- method-notes: cell binding
observable: binding result

binder | observable | val
MAdCAM antibody Table 1 clone 61 (scFv) scFv: EVQLLESGGGLVQPGGSLRLSCAASEFTFSNAWMSWVRQAPGKGLEWVASISSTSAYIDYADSVKGRFTISRDNSKNTLYLQMNSLRAEDTAVYYCAREVVGATTFDYWGQGTLVTVSSGGGGSGGGGSGGGGSGGGGSDIQMTQSPSSLSASVGDRVTITCRASQSISTWLAWYQQKPGKAPKLLIYAASSLQSGVPSRFSGSGSGTDFTLTISSLQPEDFATYYCQQANAFPPTFGQGTRLEIK | binding result | binds
